experimental details: Population PK analysis of bortezomib in pediatric ALL/AML patients
Format: in vivo, human
recorded conditions: human, plasma, intravenous, 1.3 mg/m^2, half-life, β disposition phase, geometric mean (%CV), all patients (N = 104)
measure: half-life (h)
Write the value in h as a bare number.

input: Please report half-life for the following compound: `CC(C)C[C@H](NC(=O)[C@H](Cc1ccccc1)NC(=O)c1cnccn1)B(O)O`
output: 1.58

###

experimental details: Population PK analysis of bortezomib in pediatric ALL/AML patients
Type: in vivo, human
recorded conditions: human, plasma, intravenous, 1.3 mg/m^2, half-life, γ (terminal/elimination) disposition phase, geometric mean (%CV), all patients (N = 104)
measure: half-life (h)
API: value field is a number in h; no unit string.

input: Output measured half-life for this item: CC(C)C[C@H](NC(=O)[C@H](Cc1ccccc1)NC(=O)c1cnccn1)B(O)O [bortezomib]
output: 100
